Experiment: viability loss in pontine glioma line – cell-based, SU-DIPG-IV, MIPE4.0, CellTiter-Glo, qHTS, dose response (AID 1347063);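 further: compound exposure lasted 48 hours before the viability readout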
Conditions: CellTiter-Glo ATP luminescence
Inconclusive results are not listed. Activity calls are given as the source filed them. Cut-off not given; nearly all actives show AC50 up to about 30 µM.
Tick one outcome: active, inactive

A selection of reference data follows.
Compound	Assigned category
CN(C)c1ccc2cc(C(=O)N[C@@H](CCCN=C(N)CCl)C(=O)NCc3ccccc3)ccc2c1	active
CCOC(=O)N1CCN(/[N+]([O-])=N/Oc2cc(O/N=[N+](\[O-])N3CCN(C(=O)OCC)CC3)c([N+](=O)[O-])cc2[N+](=O)[O-])CC1	active
O=C(O)c1ccc2c(c1)nc(Nc1cccc(Cl)c1)c1ccncc12	active

# input # fetch the recorded call for `Cn1c(N2CCCCS2(=O)=O)nc(C(=O)NCc2ccc(F)cc2)c(O)c1=O` here
# output inactive

# input # fetch the recorded call for `CS(=O)(=O)c1ccc(-c2cnc(N)c(C(=O)Nc3ccccc3)n2)cc1` here
# output inactive

# input # fetch the recorded call for `O=C(c1cncc(Br)c1)N1CCC(N2CCCC2)CC1` here
# output inactive

# input # fetch the recorded call for `CC(C)[C@H](C(=O)Nc1ccc(C(=O)NO)cc1)c1ccccc1` here
# output active

# input # fetch the recorded call for `COc1ccc(-c2ccc3c(N4CCOC[C@@H]4C)nc(N4CCOC[C@@H]4C)nc3n2)cc1CO` here
# output active

# input # fetch the recorded call for Cn1c2cc(S(C)=O)sc2c2cnn(Cc3cccc(N)c3)c(=O)c21 (centres undefined) here
# output inactive

====

Test: CRL1545 cell growth, single agent and combined, cisplatin and BGB IC20 combos (AID 1671464);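 further: cells exposed to compound for 96 hours before readout; 0% = vehicle DMSO and 100% = high DMSO killing control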
Settings: CRL1545 osteosarcoma cells, at 0.5 µM, stronger effect = higher value
Assign class by inhibition: not lower than 30% means True; lower than 30% means False.

Compound	Assigned category
CN(C)Cc1c(C(=O)NCCOc2ccc(C(=O)NO)cc2)oc2ccccc12	True
O=C(COc1cccc2c(=O)[nH]ccc12)c1ccccc1	False
Cc1ccc2nc(NCCN)c3ncc(C)n3c2c1	False

# input Tell me whether inhibition is at least 30% here: `CN(C)C/C=C/C(=O)Nc1ccc(C(=O)Nc2cccc(Nc3ncc(Cl)c(-c4c[nH]c5ccccc45)n3)c2)cc1`
# output True

# input Tell me whether inhibition is at least 30% here: `CN(C)c1ccc(C(=O)NCCCCCCC(=O)NO)cc1`
# output True

====

Entries annotated with measured fold change
Assay: viability loss with induced miR-34 in A549 – imaging, A549 dox-inducible miR-34, nuclei and caspase counts, primary screen (AID 1347080)
Details: A549 miR-34 inducible, Hoechst nuclei count, 48 h; measured here: relative caspase fold change +Dox/-Dox

Molecule	Experimental endpoint	Value reported
CC(C)c1ccc(C(=O)c2cccs2)c(SCCCCCCCCN(C)C)n1	fold change	1.04

# input Look at this molecule and give its reported fold change. `O=C(Nc1ccccc1)N[C@H]1C[C@H](C(=O)O)Nc2cc(Cl)cc(Cl)c21`
# output 0.915

# input Look at this molecule and give its reported fold change. `CCCCC[C@H](O)/C=C/[C@H]1[C@H](O)CC(=O)[C@@H]1C/C=C\CCCC(=O)OC`
# output 1.71

# input Look at this molecule and give its reported fold change. `CC(N)=NCCCC[C@H](N)C(=O)O`
# output 0.902

# input Look at this molecule and give its reported fold change. `Cn1cc(-c2ccc3nnc(C(F)(F)c4ccc5ncccc5c4)n3n2)cn1`
# output 0.881

# input Look at this molecule and give its reported fold change. CCCCC[C@H](O)/C=C/[C@@H]1[C@H]2CC(CCCCC(=O)O)O[C@H]2C[C@H]1O (stereo partly drawn)
# output 1.39

# input Look at this molecule and give its reported fold change. `OC[C@H]1O[C@@H](n2cnc3c(N[C@H]4CCC[C@@H]4O)ncnc32)[C@H](O)[C@@H]1O`
# output 0.92

# input Look at this molecule and give its reported fold change. `CC(C)CCOc1ccc(NC(=S)Nc2ccc(OCCC(C)C)cc2)cc1`
# output 0.401

# input Look at this molecule and give its reported fold change. CC1(O)CC(c2nc(-c3ccc4ccc(-c5ccccc5)nc4c3)c3c(N)nccn23)C1 (stereo not drawn)
# output 0.898

# input Look at this molecule and give its reported fold change. `O=C(NCCN1CCCCC1)c1ccc(I)cc1`
# output 0.747

# input Look at this molecule and give its reported fold change. `COc1ccc(/C=C/c2ccccc2F)cc1`
# output 1.67

# input Look at this molecule and give its reported fold change. `CCCCC/C=C/C=C1/C(=O)C[C@H](O)[C@@H]1C/C=C\CCCC(=O)O`
# output 1.03

# input Look at this molecule and give its reported fold change. `CCCCCCCCCCCCCCCC(=O)OC[C@@H](O)COP(=O)([O-])OCC[N+](C)(C)C`
# output 1.32

# input Look at this molecule and give its reported fold change. `CC(C)CCOc1ccc(N)cc1`
# output 2.13

# input Look at this molecule and give its reported fold change. C1CCC(NC(=NC2C3CC4CC(C3)CC2C4)N2CCOCC2)CC1 (stereo not drawn)
# output 1.05

# input Look at this molecule and give its reported fold change. `CN1CCN(CCc2ccc(Cl)c(Cl)c2)CC1`
# output 1.01

# input Look at this molecule and give its reported fold change. `CCCCOc1c(C(=O)c2c(F)cc(C)cc2F)cnc2n[nH]cc12`
# output 0.597
